molecular target: human Yes1 enzyme (Homo sapiens, UniProt P07947); construct: made in house; assay: Yes1 enzyme inhibitory activity (time-resolved fluorometry, biotinylated peptide phosphorylation); format: biochemical; details: biotinylated peptide phosphorylation, read-out: YES_IC50
Sequence (P07947 whole entry): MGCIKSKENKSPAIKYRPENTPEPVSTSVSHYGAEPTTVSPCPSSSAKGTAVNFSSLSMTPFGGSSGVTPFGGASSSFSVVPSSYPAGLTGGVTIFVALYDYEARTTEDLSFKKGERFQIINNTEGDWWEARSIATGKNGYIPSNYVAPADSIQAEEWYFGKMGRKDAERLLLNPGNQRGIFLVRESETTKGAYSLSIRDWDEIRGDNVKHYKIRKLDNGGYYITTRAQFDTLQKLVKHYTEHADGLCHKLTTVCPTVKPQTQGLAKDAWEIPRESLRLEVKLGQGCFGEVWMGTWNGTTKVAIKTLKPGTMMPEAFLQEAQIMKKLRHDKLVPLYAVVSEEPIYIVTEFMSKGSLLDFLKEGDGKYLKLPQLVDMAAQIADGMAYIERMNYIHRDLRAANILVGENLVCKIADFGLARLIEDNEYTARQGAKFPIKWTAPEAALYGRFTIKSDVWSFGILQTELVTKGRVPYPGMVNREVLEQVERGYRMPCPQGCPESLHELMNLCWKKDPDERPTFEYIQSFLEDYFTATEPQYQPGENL
value.kind: IC50 (nM)

Before answering, review these 2 worked examples.
Cc1cc(Oc2ccccc2F)ncc1-n1ncc(C(=O)c2cc3cc(F)c(NS(=O)(=O)CC(=O)N4CCOCC4)cc3[nH]2)c1N [Example 4-10-006] : 1
Cc1cc2cc(C(=O)c3cnn(-c4ccc(Oc5ccccc5F)cc4C)c3N)[nH]c2cc1N1CCOCC1 [Example 4-2-122] : 3.6

[a] Cc1cc(Oc2ccccc2F)ccc1-n1ncc(C(=O)c2cc3cc(F)c(NS(=O)(=O)CC4COCCO4)cc3[nH]2)c1N (stereo not drawn) [Example 4-7-002]
[b] Cc1cc(Oc2ccccc2F)ncc1-n1ncc(C(=O)c2cc3cc(OCC(F)F)c(C4CCN(S(C)(=O)=O)CC4)cc3[nH]2)c1N [Example 4-17-021]
[c] Cc1cc2cc(C(=O)c3cnn(-c4cnc(Oc5ccccc5F)cc4C)c3N)[nH]c2cc1NS(=O)(=O)c1cccc(C(F)(F)F)c1 [Example 5-1-463]
Highest IC50 first, then in falling order down to the smallest. // respond by listing labels in the order requested
c, b, a
(c: 12 nM, b: 0.76 nM, a: 0.43 nM)

Value source: patent US10479780B2
